- assay_target: Cellular tumor antigen p53 (Homo sapiens)
- experiment_description: TOX21_p53_BLA_p5_ratio: Tox21 HCT-116 p53 Agonism Beta-lactamase Assay, Ratio, Phase 5 (AID 2283599)
Results filed as inconclusive are left out. Calls of active or inactive are those of the source. How the source made its calls: active means hit-call score of the fitted dose curve at least 0.9, where 1 is the maximum; inconclusive means response in the unintended direction; inactive means score below 0.9.
Pick one: active, inactive

Problem: What classification did C[C@@H]1O[C@@H](OC[C@H]2O[C@@H](Oc3c(-c4ccc(O)c(O)c4)oc4cc(O)cc(O)c4c3=O)[C@H](O)[C@@H](O)[C@@H]2O)[C@H](O)[C@H](O)[C@H]1O end up with in this test?
Solution: inactive

Problem: What classification did CC(=O)O[Si](C)(OC(C)=O)OC(C)=O end up with in this test?
Solution: inactive

Problem: What classification did Cc1cc(O)c2c(O)c3c(O)cccc3cc2c1 end up with in this test?
Solution: inactive

Problem: What classification did CC(O)CN(C)C (stereo unspecified) end up with in this test?
Solution: inactive

Problem: What classification did O=C(Nc1ccc(C(=O)O)c(O)c1)c1ccccc1 end up with in this test?
Solution: inactive

Problem: What classification did CCCC1C(CC)=CC(CC)=CN1c1ccccc1 (stereo unspecified) end up with in this test?
Solution: inactive

Problem: What classification did CCc1ccc2c(c1)N(CC(C)CN(C)C)c1ccccc1S2 (stereo unspecified) end up with in this test?
Solution: inactive

Problem: What classification did Cc1ccccn1 end up with in this test?
Solution: inactive

Problem: What classification did O=Cc1ccc([N+](=O)[O-])cc1 end up with in this test?
Solution: inactive

Problem: What classification did O[C@@H]([C@H](O)[C@H](O)CBr)[C@H](O)CBr end up with in this test?
Solution: inactive

Problem: What classification did COc1cccc2c1C(=O)c1c(O)c3c(c(O)c1C2=O)C[C@@](O)(C(=O)CO)C[C@@H]3O[C@H]1C[C@H](N)[C@H](O[C@@H]2CCCCO2)[C@H](C)O1 end up with in this test?
Solution: active
